# Test system: Brush Border Membrane Vesicle (BBMV) enzymes
# procedure-details: in vitro
# Assay type: in vitro ADME
# setup-conditions: male, Wistar, kidney or brush border membranes, pH 7.4; rat BBMV, after treatment for 30 min; read-out: peptide degraded by intestinal enzymes
Square brackets hold non-standard residues; d marks the D form. Peptide text beside a SMILES is read from it. Sar = CNCC(=O)O

compound | measured-target | metabolised at 0.5 h
CN(CC(=O)O)C(=O)[C@H](Cc1ccccc1)NC(=O)[C@@H](CCCN=C(N)N)NC(=O)[C@@H](N)Cc1ccc(O)cc1 [Linear, Tyr-D-Arg-Phe-Sar] (H-Y[dR]F[Sar]-OH) | Brush Border Membrane Vesicle (BBMV) enzymes | > 80%

----------
# procedure-details: Caco-2 permeability assay

compound | Papp A→B [×10⁻⁶ cm/s]
N=C(N)NCCC[C@@H]1C(=O)N[C@@H](Cc2ccccc2)C(=O)N(CC(N)=O)CCNC(=O)NCCCCCCN1C(=O)[C@@H](N)Cc1ccc(O)cc1 [TAPS c(2-6)] | 0.038
